The origin of these recorded values is ChEMBL document CHEMBL3509421.

assay: Mean AUC(0-t) of diclofenac potassium following oral dosing of Cataflam 50 mf tablet in healthy human; assay type: ADME, organism-based; design: dietary status Fasting, dose 50 mg, dosed compound id 2.46815e+06, dosed compound name Diclofenac potassium, gender Mixed, regimen Single, route oral, study doses 50 mg; settings: both, plasma, 50 mg
readout_kind: AUC(0-t) (ng·h/mL)
Answers are plain numbers, in ng·h/mL.

Fill in: AUC(0-t) of O=C(O)Cc1ccccc1Nc1c(Cl)cccc1Cl is ___
1080

* * *

assay: clinical; settings: both, human, plasma, po, 50 mg
readout_kind: half-life (h)
Answers are plain numbers, in h.

Fill in: half-life of O=C(O)Cc1ccccc1Nc1c(Cl)cccc1Cl is ___
2.15

* * *

assay: Geometric mean for AUC (0-infinity) of diclofenac following single oral dosing of 50 mg Cataflam tablet in healthy human; format: ADME, organism-based; set-up: dietary status Fed, dose 50 mg, dosed compound id 2.46815e+06, dosed compound name Diclofenac potassium, gender Mixed, regimen Single, route oral, time infinity; conditions: both, plasma, read-out: AUC (0-infinity)
readout_kind: AUC(0-inf) (ng·h/mL)
Numbers only, in ng·h/mL.

Fill in: AUC(0-inf) of O=C(O)Cc1ccccc1Nc1c(Cl)cccc1Cl is ___
1180

* * *

test: Mean Cmax of diclofenac following single oral dosing of 50 mg diclofenac potassium softgel capsule in healthy human; assay type: ADME, organism-based; parameters: dietary status Fed, dose 50 mg, dosed compound id 2.46815e+06, dosed compound name Diclofenac potassium, gender Mixed, regimen Single, route oral, study doses 25/50 mg; conditions: both, plasma
readout_kind: Cmax (ng/mL)
One number for each entry, in ng/mL.

Fill in: Cmax of O=C(O)Cc1ccccc1Nc1c(Cl)cccc1Cl is ___
1150

* * *

test: Mean AUC(0-infinity) of diclofenac potassium following oral dosing of PRO-513 50 mg sachet in healthy human; type: ADME, organism-based; set-up: time infinity, dietary status Fed, dose 50 mg, dosed compound id 2.46815e+06, dosed compound name Diclofenac potassium, gender Mixed, regimen Single, route oral, study doses 50 mg; settings: both, plasma, read-out: AUC(0-infinity)
readout_kind: AUC(0-inf) (ng·h/mL)
Answers are plain numbers, in ng·h/mL.

Fill in: AUC(0-inf) of O=C(O)Cc1ccccc1Nc1c(Cl)cccc1Cl [DICLOFENAC] is ___
1080

* * *

assay: clinical; conditions: both, human, plasma, po, 50 mg
readout_kind: half-life (h)
Numbers only, in h.

Fill in: half-life of O=C(O)Cc1ccccc1Nc1c(Cl)cccc1Cl is ___
1.84

* * *

assay: Mean AUC (0-t) value of diclofenac following single oral dosing of 35 mg Zorvolex capsule in healthy human; assay type: ADME, organism-based; set-up: dietary status Fed, dose 35 mg, dosed compound id 2.46815e+06, dosed compound name Diclofenac, gender Mixed, regimen Single, route oral; conditions: both, plasma
readout_kind: AUC(0-t) (ng·h/mL)
Answers are plain numbers, in ng·h/mL.

Fill in: AUC(0-t) of O=C(O)Cc1ccccc1Nc1c(Cl)cccc1Cl is ___
861

* * *

experiment: Geometric mean for apparent terminal elimination rate constant of diclofenac following single oral dosing of 50 mg Cataflam tablet in healthy human; assay type: ADME, organism-based, Plasma; set-up: dietary status Fed, dose 50 mg, dosed compound id 2.46815e+06, dosed compound name Diclofenac potassium, gender Mixed, regimen Single, route oral; details: in vivo
readout_kind: lambda-z (h⁻¹)
One number for each entry, in h⁻¹.

Fill in: lambda-z of O=C(O)Cc1ccccc1Nc1c(Cl)cccc1Cl [DICLOFENAC] is ___
0.318
